TEST PROTOCOL: Inhibition of human tryptase by FRET assay
pKi: −log10 of the molar value. Where a SMILES comes first, the peptide text is derived from it. [ ]: non-standard residue; d: D form. 2Abz = Nc1ccccc1C(=O)O
ASSAY METRIC: pKi

1) N=C(N)NCCC[C@H](NC(=O)[C@H](CC(=O)O)NC(=O)[C@H](CCC(N)=O)NC(=O)[C@H](CCCNC(=N)N)NC(=O)c1ccccc1N)C(=O)O (H-[2Abz]RQDR-OH)
5.67

* * *

TESTED ON: Transmembrane protease serine 11D (Homo sapiens, UniProt O60235)
Where a SMILES comes first, the peptide text is derived from it. [ ]: non-standard residue; d: D form. 2Abz = Nc1ccccc1C(=O)O
ASSAY METRIC: Ki (nM)

1) N=C(N)NCCC[C@H](NC(=O)[C@H](CC(=O)O)NC(=O)[C@H](CCC(N)=O)NC(=O)[C@H](CCCNC(=N)N)NC(=O)c1ccccc1N)C(=O)O (H-[2Abz]RQDR-OH)
54.3
